Reported MIC values are given for each entry in this list.
tested on: Escherichia coli; experiment: Antibacterial activity against Escherichia coli AG102MB harboring naive acrB gene; type: functional
Number in µg/mL, nothing else.

Some solved cases for reference:
CN(C)c1ccc(C(=C2C=CC(=[N+](C)C)C=C2)c2ccc(N(C)C)cc2)cc1.[Cl-]: 4
CN(C)[C@@H]1C(O)=C(C(N)=O)C(=O)[C@@]2(O)C(O)=C3C(=O)c4c(O)cccc4[C@@](C)(O)[C@H]3C[C@@H]12: 8
CC[C@H]1OC(=O)C[C@@H](O)[C@H](C)[C@@H](O[C@@H]2O[C@H](C)[C@@H](O[C@H]3C[C@@](C)(O)[C@@H](O)[C@H](C)O3)[C@H](N(C)C)[C@H]2O)[C@@H](CC=O)C[C@@H](C)C(=O)/C=C/C(C)=C/[C@@H]1CO[C@@H]1O[C@H](C)[C@@H](O)[C@@H](OC)[C@H]1OC: 1020
C[C@H](CCC(=O)O)[C@H]1CC[C@H]2[C@@H]3[C@H](O)C[C@@H]4C[C@H](O)CC[C@]4(C)[C@H]3C[C@H](O)[C@]12C: 8
CO[C@@H]1[C@@H](OC(N)=O)[C@@H](O)[C@H](Oc2ccc3c(O)c(NC(=O)c4ccc(O)c(CC=C(C)C)c4)c(=O)oc3c2C)OC1(C)C: 512
CC[C@H]1OC(=O)[C@H](C)[C@@H](O[C@H]2C[C@@](C)(OC)[C@@H](O)[C@H](C)O2)[C@H](C)[C@@H](O[C@@H]2O[C@H](C)C[C@H](N(C)C)[C@H]2O)[C@](C)(O)C[C@@H](C)C(=O)[C@H](C)[C@@H](O)[C@]1(C)O: 128

Kindly review the next compound as well.
**Query** Reported MIC, compound CC[n+]1c(-c2ccccc2)c2cc(N)ccc2c2ccc(N)cc21.[Br-] [HOMIDIUM BROMIDE] : ____
**Result** 128

###

tested on: Escherichia coli; assay: Antibacterial activity against Escherichia coli AG102MB; format: functional
measured.attribute: MIC

Some compounds with recorded MIC:
C[C@H](CCC(=O)O)[C@H]1CC[C@H]2[C@@H]3[C@H](O)C[C@@H]4C[C@H](O)CC[C@]4(C)[C@H]3C[C@H](O)[C@]12C: 4 µg/mL
CC1(C)S[C@@H]2[C@H](NC(=O)[C@H](N)c3ccccc3)C(=O)N2[C@H]1C(=O)O: 16 µg/mL
O=C(O)c1cn(C2CC2)c2cc(N3CCNCC3)c(F)cc2c1=O: 0.063 µg/mL

**Query** Can you look up the measured MIC of CC[C@H]1OC(=O)C[C@@H](O)[C@H](C)[C@@H](O[C@@H]2O[C@H](C)[C@@H](O[C@H]3C[C@@](C)(O)[C@@H](O)[C@H](C)O3)[C@H](N(C)C)[C@H]2O)[C@@H](CC=O)C[C@@H](C)C(=O)/C=C/C(C)=C/[C@@H]1CO[C@@H]1O[C@H](C)[C@@H](O)[C@@H](OC)[C@H]1OC for me?
**Result** 128 µg/mL

**Query** Would you mind telling me what MIC value was observed for NC[C@H]1O[C@H](O[C@H]2[C@H](O)[C@@H](O[C@H]3O[C@H](CO)[C@@H](O)[C@H](N)[C@H]3O)[C@H](N)C[C@@H]2N)[C@H](O)[C@@H](O)[C@@H]1O ?
**Result** > 1020 µg/mL

**Query** MIC for CN(C)c1ccc(C(=C2C=CC(=[N+](C)C)C=C2)c2ccc(N(C)C)cc2)cc1.[Cl-] ?
**Result** 0.5 µg/mL

**Query** // lookup MIC for O=C(N[C@H](CO)[C@H](O)c1ccc([N+](=O)[O-])cc1)C(Cl)Cl
**Result** 2 µg/mL

**Query** Reported MIC for CO[C@H]1C[C@H](O[C@H]2[C@H](C)[C@@H](O[C@@H]3O[C@H](C)C[C@H](N(C)C)[C@H]3O)[C@@H](C)C[C@@]3(CO3)C(=O)[C@H](C)[C@@H](O)[C@@H](C)[C@@H](C)OC(=O)[C@@H]2C)O[C@@H](C)[C@@H]1O : what is it?
**Result** 256 µg/mL

**Query** Query: MIC; subject: CC[C@H]1OC(=O)[C@H](C)[C@@H](O[C@H]2C[C@@](C)(OC)[C@@H](O)[C@H](C)O2)[C@H](C)[C@@H](O[C@@H]2O[C@H](C)C[C@H](N(C)C)[C@H]2O)[C@](C)(O)C[C@@H](C)C(=O)[C@H](C)[C@@H](O)[C@]1(C)O
**Result** 4 µg/mL

**Query** Consider the compound CN(C)[C@@H]1C(O)=C(C(N)=O)C(=O)[C@@]2(O)C(O)=C3C(=O)c4c(O)cccc4[C@@](C)(O)[C@H]3C[C@@H]12 and give its measured MIC.
**Result** 1 µg/mL

Just for reference, ChEMBL document CHEMBL1240388 is where these values come from.
